measured-on: FAD-linked sulfhydryl oxidase ALR (Homo sapiens) (UniProt P55789)
Sequence (P55789 whole entry, looked up): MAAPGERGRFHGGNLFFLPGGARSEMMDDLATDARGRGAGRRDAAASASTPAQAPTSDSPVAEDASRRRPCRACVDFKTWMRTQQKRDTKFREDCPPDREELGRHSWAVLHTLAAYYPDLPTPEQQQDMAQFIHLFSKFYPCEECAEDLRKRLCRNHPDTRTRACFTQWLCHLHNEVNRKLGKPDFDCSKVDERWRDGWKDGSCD
procedure-text: ALR-catalysed DTT oxidation blockers – biochemical, H2O2 detection, HRP-luminol luminescence, single point, primary screen (AID 485317)
reported-conditions: purified ALR, concentration not given here
About 11,000 (3.8%) of roughly 290,000 compounds were called active.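 How the source made its calls: active means mean replicate inhibition above about 79%, with every replicate also reaching it (limit read from the data); inconclusive means only one of the two criteria met; inactive means mean below limit and not every replicate reaching it.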 This excerpt belongs to a sample that is enriched for actives.
// one of T = active, F = inactive, no free text

1) COC(=O)C1=C(c2ccccc2OCc2ccccc2)C[C@@H]2CC[C@H]1N2C(=O)NCc1ccc(OC)cc1 : F
2) NCCc1c[nH]c2ccc(O)cc12 : T

Now consider a different molecule.
Could you check what this test reported for `COC(=O)C1=C(c2cc3ccccc3o2)C[C@@H]2CC[C@H]1N2C(=O)NC1CCCCC1` ? F

* * *

measured-on: FAD-linked sulfhydryl oxidase ALR (Homo sapiens) (UniProt P55789)
procedure-text: ALR-catalysed DTT oxidation blockers – biochemical, H2O2 detection, HRP-luminol luminescence, single point, primary screen (AID 485317)
reported-conditions: purified ALR, active compounds read high, concentration not given here
Among all 290,000 compounds or so, about 11,000 (3.8%) were called active. What follows is part of a selection rich in actives, with near analogues and random picks from the rest.
property-name: inhibition (%)
Output spec: scalar in %, unitless text.

1. COc1ccc(CNCCc2c[nH]c3ccccc23)cc1OC : 4.28

Name the recorded inhibition of the molecule listed here: `C/C(=N/O)c1ccc2ccc3ccccc3c2c1` 99.1

Name the recorded inhibition of the molecule listed here: `Cc1ccc(-n2c(C)cc(/C=C3\C(=O)NC(=O)N(C)C3=O)c2C)cc1C` -26

Name the recorded inhibition of the molecule listed here: `COc1ccc(CN2C(=O)NC(=O)/C(=C\c3ccc(OC)c(OC)c3OC)C2=O)cc1` 20

Name the recorded inhibition of the molecule listed here: `CCC(=O)c1ccc(OCC(=O)N2CCN(CC(=O)Nc3ccc(C)cc3)CC2)cc1` -2.33

Name the recorded inhibition of the molecule listed here: `Cc1cc(C=C2C(=O)NC(=O)NC2=O)c(C)n1-c1ccncc1` 20.8

Name the recorded inhibition of the molecule listed here: `O=c1[nH]c(O)c(C=Nc2cc(F)cc(F)c2)c(=O)[nH]1` -1.04

Name the recorded inhibition of the molecule listed here: `O=C(CCC(=O)N1C[C@H]2C[C@@H](C1)c1cccc(=O)n1C2)NCc1ccccc1C(F)(F)F` -3.58

Name the recorded inhibition of the molecule listed here: `Cc1ccccc1NC(=O)COC(=O)c1cc(C)n(C2CC2)c1C` 5.99

Name the recorded inhibition of the molecule listed here: `CN1CCc2cc3c(cc2[C@H]1[C@@H]1OC(=O)c2c1ccc1c2OCO1)OCO3` -8.76

Name the recorded inhibition of the molecule listed here: CC(=O)NC(=O)NC(C)Cc1ccccc1 (stereo unspecified) 99.2

* * *

measured-on: FAD-linked sulfhydryl oxidase ALR (Homo sapiens) (UniProt P55789)
procedure-text: ALR-catalysed DTT oxidation blockers – biochemical, H2O2 detection, HRP-luminol luminescence, single point, primary screen (AID 485317)
reported-conditions: purified ALR, active compounds read high, concentration not given here
Hit rate of the full screen: of about 290,000 compounds, about 11,000 (3.8%) were called active. The entries come from a sample that favours actives as a whole.
property-name: inhibition (%)
Output spec: scalar in %, unitless text.

Some solved entries appear below for comparison.
1. COC(=O)C1=C(c2c(C)noc2C)C[C@@H]2CC[C@H]1N2C(=O)NCc1ccc2c(c1)OCO2 : -6.31
2. COc1ccc2c(c1)[C@]13CCCCC1C(C2)N(C)CC3 (some centres undefined) : -0.421
3. c1ccc(CCN2CCC3(CC2)OCCO3)cc1 : 0.745
4. C=CC12CN(C)[C@@H]3C4CO[C@H](C[C@H]41)[C@]1(C(=O)Nc4ccccc41)[C@@H]32 (some centres undefined) : -7.63
5. COC(=O)C1=C(c2ccc(F)cc2OCc2ccccc2)C[C@@H]2CC[C@H]1N2C(=O)NCc1ccc(Cl)cc1 : 0.0344
6. O=c1c2ccccc2nc(/C=C/c2ccco2)n1-c1ccccc1O : 47.2
7. COC(=O)C1=C(c2ccc(F)cc2OCc2ccccc2)C[C@@H]2CC[C@H]1N2C(=O)NCc1ccc(C(C)(C)C)cc1 : -8.86
8. COC(=O)C1=C(c2ccc(Cl)c(C(F)(F)F)c2)C[C@@H]2CC[C@H]1N2C(=O)NC(C)C : 0.07

# evaluate next
Report its inhibition with FAD-linked sulfhydryl oxidase ALR (Homo sapiens) (UniProt P55789) as the test system: `COC(=O)C1=C(c2cc3ccccc3s2)C[C@@H]2CC[C@H]1N2C(=O)NC(C)C` 16.9

* * *

measured-on: FAD-linked sulfhydryl oxidase ALR (Homo sapiens)
procedure-text: ALR-catalysed DTT oxidation blockers – biochemical, H2O2 detection, HRP-luminol luminescence, single point, primary screen (AID 485317)
reported-conditions: purified ALR, concentration not given here
About 11,000 (3.8%) of roughly 290,000 compounds were called active.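 Rule for the calls: active = mean replicate inhibition above about 79%, with every replicate also reaching it (limit read from the data); inconclusive = only one of the two criteria met; inactive = mean below limit and not every replicate reaching it.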 For the sample, actives were picked, then their nearest neighbours and some compounds at random.
// one of active, inactive, no free text

As a guide, the following entries are already answered.
1) Cc1cc(/C=C2/C(=O)NC(=O)N(Cc3ccco3)C2=O)c(C)n1-c1ccc(C(=O)O)cc1 : active
2) Oc1cc2c(cc1CN1CCN(c3ccccc3)CC1)OCO2 : inactive
3) COC(=O)C1=C(c2ccc(F)cc2OCc2ccccc2)C[C@@H]2CC[C@H]1N2C(=O)NCc1ccc2[nH]ccc2c1 : inactive
4) COC(=O)C1=C(c2ccc3ccccc3c2)C[C@@H]2CC[C@H]1N2C(=O)NCCO : inactive
5) COC(=O)C1=C(c2cccc(OCc3ccccc3)c2)C[C@@H]2CC[C@H]1N2C(=O)NNCc1ccccc1 : inactive

Could you check what this test reported for `Fc1ccc(N2CCN(Cc3ccc4c(c3)OCO4)CC2)cc1` ? active

Could you check what this test reported for `COC(=O)C1=C(c2ccccc2)C[C@@H]2CC[C@H]1N2C(=O)N1CCCCC1` ? inactive

* * *

measured-on: FAD-linked sulfhydryl oxidase ALR (Homo sapiens) (UniProt P55789)
procedure-text: ALR-catalysed DTT oxidation blockers – biochemical, H2O2 detection, HRP-luminol luminescence, single point, primary screen (AID 485317)
reported-conditions: purified ALR, active compounds read high, concentration not given here
The campaign covered roughly 290,000 compounds. About 11,000 (3.8%) were called active. The sample holds actives, similar compounds and a random draw of the others, so the mix is not that of the screen.
Outcome: y for inhibition of at least 10%; n for anything lower.

1) COc1ccc(NC(=O)N2CCC3(CC2)OCCO3)c(OC)c1 : n
2) CN(C)c1nc(N(C)C)nc(N(C#N)CCCl)n1 : y
3) Cc1c(C(=O)O)cccc1-n1c(C)cc(/C=C2\C(=O)NC(=O)N(c3ccc4c(c3)OCO4)C2=O)c1C : y
4) O=C(Cc1ccccc1[N+](=O)[O-])N1CCN(Cc2ccc3c(c2)OCO3)CC1 : n

Now consider a different compound.
Does the compound COc1ccc(-c2nc(CS(=O)CC(=O)N3CCC4(CC3)OCCO4)c(C)o2)cc1 (stereo not given) have recorded inhibition that is 10% or more? y
